Ref: PubChem BioAssay (NCI)

Tested on: M14 melanoma
MEASUREMENT_NOTES: NCI tumour cell line growth inhibition, 48 h; in the data active = GI50 below about 0.43 µM; inactive = the rest
Hi! Could you answer with just one of these? t = active, f = inactive

A selection of reference data follows.
1) NC(N)=N/N=C/c1c(-c2cc(Cl)sc2Cl)nc2sccn12 = f
2) COc1cc2nc(SCC(=O)Nc3cc(OC)c(OC)c(OC)c3)n(Cc3ccccc3)c(=O)c2cc1OC = f
3) O=C1NC(=O)C(=C/C=C/c2ccccc2)C(=O)N1 = f
4) Oc1ccc(O)c(-c2cn3ccsc3n2)c1 = f
5) COc1ccc2c(c1)[nH]c(=O)c1c3cc(OC)ccc3cn21 = t
6) C/C(=C\CCc1ccoc1)CC/C=C(\C)CCCN1CCOCC1 = f
7) O=C1c2nsnc2C(=O)c2c(F)c(F)c(F)c(F)c21 = t
8) Cc1ccccc1-n1ncc(C(=O)c2ccccc2)c1N = f
9) CS(=O)(=O)Nc1ccc(-c2cc(-c3ccccc3)cc(C(N)=O)c2N)cc1 = f
10) O=[N+]([O-])c1ccccc1N/N=C\c1c[nH]c2ccccc12 = f

Entry Nc1nc2c(s1)CCc1c-2c(Br)n(Cc2ccccc2)c1Br : call = ?
f

Entry Cc1ccc2ncnc(N(CC(C)C)CC(C)C)c2c1 : call = ?
f

Entry COc1ccc(C(=O)c2cc(OC)c(OC)c(OC)c2)cc1/C=C/C(=O)c1ccc(OC)c(OC)c1 : call = ?
f

Entry CC1(C)CCC2=C(O1)c1ccccc1C(=O)C2=O : call = ?
f

Entry Nc1nc(OCc2cc(Br)cs2)c2[nH]cnc2n1 : call = ?
f

Entry COc1ccc(C(SCC(N)C(=O)O)(c2ccccc2)c2ccccc2)cc1 (stereo unspecified) : call = ?
t

Entry COC(=O)[C@]12CC[C@@H](C)[C@H](C)[C@@H]1C1=CC[C@@H]3[C@@]4(C)C(C=O)=C[C@@](C)(COC(C)=O)C4=CC[C@@]3(C)[C@]1(C)CC2 : call = ?
f

Entry Clc1ccc2c(c1)N(c1ncnc3ccc(-c4cnc5[nH]ccc5c4)cc13)CC2 : call = ?
f

Entry CCCCCCCCCCCCCC1=NCCN1CCO : call = ?
f

Entry COC1CCN(C(=O)c2cc(Cc3n[nH]c(=O)c4ccccc34)ccc2F)CC1 : call = ?
f

Entry Clc1cccc(Cl)c1C1CSc2ccccc2N=C1c1ccccc1 (stereo unspecified) : call = ?
f

----------
Test system: MDA-MB-435
MEASUREMENT_NOTES: NCI tumour cell line growth inhibition, 48 h
Entries and their measured TGI follow.

1) CCCCCCCCCCCCCC1=NCCN1CCO = 9.07 µM
2) CCN1C(=O)C(C)S/C1=N\NC(=O)CSc1nc2ccccc2c(=O)n1CC (stereo unspecified) = > 100 µM
3) c1ccc(CNCCCCNCCCNCc2ccccc2)cc1 = 34.7 µM
4) CC1Oc2c(c(=O)oc3ccccc23)[C@@]1(C)CC1C[C@H](C)C(=O)O1 (stereo partly specified) = 47.8 µM

The compound listed as O=C(O)c1ccc(NC(NC(=O)C(C(F)(F)F)C(F)(F)F)(C(F)(F)F)C(F)(F)F)cc1 shows TGI equal to > 100 µM

The compound listed as C1=C(c2ccccc2)Nc2nnnn2C1c1ccccc1 (stereo unspecified) shows TGI equal to 47 µM

----------
System: HCT-15 colon
MEASUREMENT_NOTES: NCI tumour cell line growth inhibition, 48 h; in the data active = GI50 below about 0.43 µM; inactive = the rest
Hi! Could you answer with just one of these? 1 (yes) = active, 0 (no) = inactive

1. NC(N)=N/N=C/c1c(-c2cc(Cl)sc2Cl)nc2sccn12 = 0 (no)
2. COc1ccc(C(SCC(N)C(=O)O)(c2ccccc2)c2ccccc2)cc1 (stereo unspecified) = 0 (no)
3. CC1COc2c(N3CCN(C)CC3)c(F)cc3c(=O)c(C(=O)O)cn1c23 (stereo unspecified) = 0 (no)
4. COc1ccc(C(=O)c2cc(OC)c(OC)c(OC)c2)cc1/C=C/C(=O)c1ccc(OC)c(OC)c1 = 0 (no)
5. Cn1cc(C2=C(c3cn(C)c4c([N+](=O)[O-])cccc34)C(=O)NC2=O)c2ccccc21 = 0 (no)
6. O=C(c1ccccc1)c1ccc(Oc2ccc([N+](=O)[O-])cc2[N+](=O)[O-])cc1 = 0 (no)
7. Oc1ccc(O)c(-c2cn3ccsc3n2)c1 = 0 (no)
8. COC(=O)[C@]12CC[C@@H](C)[C@H](C)[C@@H]1C1=CC[C@@H]3[C@@]4(C)C(C=O)=C[C@@](C)(COC(C)=O)C4=CC[C@@]3(C)[C@]1(C)CC2 = 0 (no)

Entry COc1cc2nc(SCC(=O)Nc3cc(OC)c(OC)c(OC)c3)n(Cc3ccccc3)c(=O)c2cc1OC : call = ?
0 (no)

Entry O=C(/C(=C\c1ccc([N+](=O)[O-])cc1)S(=O)Cc1ccc(F)cc1)c1ccc(F)cc1 (stereo unspecified) : call = ?
0 (no)

----------
Entries and their measured TGI follow.
Tested on: MDA-MB-435
MEASUREMENT_NOTES: NCI tumour cell line growth inhibition, 48 h
Numbers only here, please. The scale is µM.

1. O=[N+]([O-])c1ccc(Sc2ncnc3nc[nH]c23)c2nonc12 = 17.1
2. COc1ccc2c(CN3CCC(C(=O)O)CC3)cc3cc4c(cc3c2c1)OCO4 = 7.42

The molecule listed as Cc1ccc(C(SCC(N)C(=O)O)(c2ccc(C)cc2)c2ccc(C)cc2)cc1 (stereo not given) shows TGI equal to 1.16

----------
Tested on: HS 578T breast
MEASUREMENT_NOTES: NCI tumour cell line growth inhibition, 48 h
Entries and their measured TGI follow.
Numbers only here, please. The scale is µM.

1) Cc1nc(N/N=C/c2ccccc2Cl)[nH]c(=O)c1CCO = 81.1
2) Clc1cccc(Cl)c1C1CSc2ccccc2N=C1c1ccccc1 (stereo not given) = 57.6
3) O=C(/C(=C\c1ccc([N+](=O)[O-])cc1)S(=O)Cc1ccc(F)cc1)c1ccc(F)cc1 (stereo not given) = 75

Shifting focus to the compound that follows.
The recorded TGI with HS 578T breast for O=C(c1ccccc1)c1ccc(Oc2ccc([N+](=O)[O-])cc2[N+](=O)[O-])cc1 was 38.7

----------
Entries and their measured TGI follow.
Test system: M14 melanoma
MEASUREMENT_NOTES: NCI tumour cell line growth inhibition, 48 h

1) CC(=O)NC(c1nc2cc(C)c(C)cc2[nH]1)c1nc2cc(C)c(C)cc2[nH]1 = > 100 µM
2) OCC(O)C(O)C(O)c1nn(-c2ccc(Cl)cc2)c2nc3cc(Cl)c(Cl)cc3nc12 (centres undefined) = > 100 µM
3) CCCCCCCCN(CCCCCCCC)CCCCCCNc1cc(OC)cc2cccnc12 = 12.4 µM

Shifting focus to the compound that follows.
The compound listed as CN(C)P(=O)(Oc1ccc(CC(NC(=O)OCc2ccccc2)C(=O)OCc2ccccc2)cc1)N(C)C (centres undefined) shows TGI equal to 32 µM

----------
Entries and their measured TGI follow.
System: HCT-116 colon
MEASUREMENT_NOTES: NCI tumour cell line growth inhibition, 48 h

Here are 5 compounds together with their reported answers.
1) COc1cccc(/C=N/[N-]C(N)=O)c1[O-].[Ni+2].[OH3+].c1ccc(-c2ccccn2)nc1 = > 100 µM
2) CC(C)=NNC=N/C(C#N)=C(\N)C#N = > 100 µM
3) COc1ccc2c(CN3CCC(C(=O)O)CC3)cc3cc4c(cc3c2c1)OCO4 = 8.78 µM
4) O=CNc1ncn[nH]1 = > 100 µM
5) Cc1cc(O)ccc1C1=NN(c2ccc(S(C)(=O)=O)cc2)C(=O)CC1 = > 100 µM

The compound listed as OC1CCOc2ccccc21 (centres undefined) shows TGI equal to > 100 µM

The compound listed as CCCCCCOc1ccc(C(=O)NO)cc1 shows TGI equal to 21.5 µM

The compound listed as Oc1ccc(N=C2CCC(=C(c3ccccc3)c3ccc(Nc4ccc(O)cc4)cc3)CC2)cc1 shows TGI equal to > 100 µM

The compound listed as S=C1CC(c2ccccc2)Sc2ccccc2N1 (centres undefined) shows TGI equal to > 100 µM

The compound listed as Cc1ccc(C(SCC(N)C(=O)O)(c2ccc(C)cc2)c2ccc(C)cc2)cc1 (centres undefined) shows TGI equal to 13 µM

The compound listed as Cl.Fc1c[c-]c(-c2ccccn2)c(F)c1.[Pt].c1ccc(P(c2ccccc2)C([PH+](c2ccccc2)c2ccccc2)[PH+](c2ccccc2)c2ccccc2)cc1 shows TGI equal to 12.3 µM

----------
Entries and their measured TGI follow.
Tested on: RPMI-8226 leukemia
MEASUREMENT_NOTES: NCI tumour cell line growth inhibition, 48 h

Here are 3 compounds together with their reported answers.
1) COc1cc(S(=O)(=O)Nc2ccc(-c3csc(N)n3)cc2)ccc1Cl = 65.1 µM
2) CC(=O)OC1CCCn2c1nc1c2C(=O)C(C)=C(N2CC2)C1=O (stereo not given) = 14.2 µM
3) Nc1ccn(C2CCC(CO)O2)c(=S)n1 (stereo not given) = > 100 µM

The compound listed as CCOC(=O)[C@@]12C3C=CC(CC3)[C@]1(C(=O)c1ccccc1)C(=O)C(=O)N2c1ccccc1 (stereo not given in full) shows TGI equal to > 100 µM

The compound listed as Cc1cc(O)ccc1C1=NN(c2ccc(S(C)(=O)=O)cc2)C(=O)CC1 shows TGI equal to > 100 µM
